Source listed as ChEMBL document CHEMBL1671712.

Please provide measured Activity for the entries that follow.
# System: Staphylococcus aureus
# Procedure summary: Antimicrobial activity against Staphylococcus aureus USA300 isolate harboring pSK41 plasmid assessed resistant isolates
# Type: functional
One number for each entry, in %.

A selection of reference data follows.
Looking for the measured Activity of Cc1onc(-c2ccccc2)c1C(=O)N[C@@H]1C(=O)N2[C@@H]1SC(C)(C)[C@@H]2C(=O)O , can you help?
100

Looking for the measured Activity of C[C@H]1COc2c(N3CCN(C)CC3)c(F)cc3c(=O)c(C(=O)O)cn1c23.C[C@H]1COc2c(N3CCN(C)CC3)c(F)cc3c(=O)c(C(=O)O)cn1c23.O , can you help?
45

Looking for the measured Activity of CC[C@H]1OC(=O)[C@H](C)[C@@H](O[C@H]2C[C@@](C)(OC)[C@@H](O)[C@H](C)O2)[C@H](C)[C@@H](O[C@@H]2O[C@H](C)C[C@H](N(C)C)[C@H]2O)[C@](C)(O)C[C@@H](C)C(=O)[C@H](C)[C@@H](O)[C@]1(C)O , can you help?
85

We now examine a further molecule.
Looking for the measured Activity of CC1(C)S[C@@H]2[C@H](NC(=O)Cc3ccccc3)C(=O)N2[C@H]1C(=O)O , can you help?
100
